TARGET_OR_SYSTEM: human KHK-A (Homo sapiens (Human), UniProt P50053)
Sequence (P50053 other isoform, or with tags, fused parts or gaps): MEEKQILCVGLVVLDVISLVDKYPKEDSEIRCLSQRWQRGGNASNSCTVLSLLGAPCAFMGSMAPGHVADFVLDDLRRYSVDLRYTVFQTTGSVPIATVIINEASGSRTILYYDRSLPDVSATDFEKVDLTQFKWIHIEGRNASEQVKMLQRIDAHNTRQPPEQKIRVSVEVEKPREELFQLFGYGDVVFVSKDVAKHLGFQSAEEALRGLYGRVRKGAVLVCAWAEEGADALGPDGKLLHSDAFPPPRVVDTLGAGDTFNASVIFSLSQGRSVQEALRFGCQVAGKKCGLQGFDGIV
ASSAY: KHK Biochemical Assay (IC50), ADP-Glo, KHK-A
CONDITION_LABEL: average of at least two separate assays
READOUT_LABEL: log10 of IC50 (log10 of the value in nM)

{"MOLECULE": "C[C@H]1CCN1c1nc2c(c(-c3ccc(C4(C(=O)O)CC4)cc3)n1)CCC2", "log10 of IC50": 2.70}
{"MOLECULE": "C[C@H]1[C@H](O)CN1c1nc(-c2ccc3c(c2)CC[C@]32CCC(=O)N2)c2c(n1)C(F)(F)CC2 (single isomer, unassigned)", "log10 of IC50": 0.93}
{"MOLECULE": "C[C@H]1CCN1c1nc2c(c(-c3ccc4c(c3)[C@]3(C[C@@H]3C(=O)O)C(=O)N4)n1)CCC2 (racemic)", "log10 of IC50": 1.61}
{"MOLECULE": "C[C@H]1[C@H](O)CN1c1nc(-c2ccc3c(c2)S(=N)(=O)CCNC3)c2c(n1)C(F)(F)CC2 (stereo partly drawn)", "log10 of IC50": 0.34}
{"MOLECULE": "C[C@H]1[C@H](O)CN1c1nc(-c2ccc3c(c2)OC[C@]32COC(=O)N2)c2c(n1)C(F)(F)CC2 (single isomer, unassigned)", "log10 of IC50": 1.42}
{"MOLECULE": "C[C@H]1[C@H](F)CN1c1nc(-c2ccc([C@H](N)CS(C)(=O)=O)cc2)c2c(n1)C(F)(F)CC2 (single isomer, unassigned)", "log10 of IC50": 0.78}

====

Known IC50 of a selection of molecules
TARGET_OR_SYSTEM: human KHK-C (Homo sapiens (Human))
Sequence (P50053 whole entry): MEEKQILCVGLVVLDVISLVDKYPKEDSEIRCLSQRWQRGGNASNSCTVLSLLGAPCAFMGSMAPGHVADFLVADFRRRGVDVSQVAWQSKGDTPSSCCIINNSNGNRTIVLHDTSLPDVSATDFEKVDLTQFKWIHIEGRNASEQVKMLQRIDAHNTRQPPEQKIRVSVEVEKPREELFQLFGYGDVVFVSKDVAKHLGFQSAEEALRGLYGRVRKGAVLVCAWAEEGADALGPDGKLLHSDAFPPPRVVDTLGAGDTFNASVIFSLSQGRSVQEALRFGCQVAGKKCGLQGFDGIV
ASSAY: KHK Biochemical Assay (IC50), ADP-Glo, KHK-C
CONDITION_LABEL: ADP-Glo; average of at least two separate assays
READOUT_LABEL: IC50 (µM)

{"MOLECULE": "C[C@H]1CCN1c1nc2c(c(-c3cccc(NS(=O)(=O)CC(=O)O)c3)n1)CCC2", "READOUT_LABEL": "IC50", "READOUT_UNIT": "µM", "QUALIFYING_SIGN": "=", "EXPERIMENTAL_VALUE": 0.0076}
{"MOLECULE": "C[C@H]1CCN1c1nc(-c2ccccc2)c2c(n1)C1(CC2)CC1", "READOUT_LABEL": "IC50", "READOUT_UNIT": "µM", "QUALIFYING_SIGN": ">", "EXPERIMENTAL_VALUE": 50}
{"MOLECULE": "C[C@H]1CCN1c1nc2c(c(-c3cccc(CNC(=O)CO)c3)n1)CCC2", "READOUT_LABEL": "IC50", "READOUT_UNIT": "µM", "QUALIFYING_SIGN": "=", "EXPERIMENTAL_VALUE": 0.0506}
{"MOLECULE": "C[C@H]1CCN1c1nc2c(c(-c3cccc(NS(=O)(=O)CCC(=O)O)c3)n1)CCC2", "READOUT_LABEL": "IC50", "READOUT_UNIT": "µM", "QUALIFYING_SIGN": "=", "EXPERIMENTAL_VALUE": 0.0103}
{"MOLECULE": "C[C@@H]1[C@@H](C)CN1c1nc2c(c(-c3ccc(C(N)=O)cc3)n1)CCC2", "READOUT_LABEL": "IC50", "READOUT_UNIT": "µM", "QUALIFYING_SIGN": "=", "EXPERIMENTAL_VALUE": 0.466}
{"MOLECULE": "CNC(=O)c1ccc(-c2nc(N3CC[C@@H]3C)nc3c2CCC3)cn1", "READOUT_LABEL": "IC50", "READOUT_UNIT": "µM", "QUALIFYING_SIGN": "=", "EXPERIMENTAL_VALUE": 0.188}
{"MOLECULE": "C[C@H]1[C@H](O)CN1c1nc2c(c(-c3cccc(CNS(C)(=O)=O)c3)n1)CCC2", "READOUT_LABEL": "IC50", "READOUT_UNIT": "µM", "QUALIFYING_SIGN": "=", "EXPERIMENTAL_VALUE": 0.0478}
{"MOLECULE": "Cc1cc(-c2nc(N3CC[C@@H]3C)nc3c2CCC3)cc2c1C(NS(C)(=O)=O)CO2 (some centres unmarked)", "READOUT_LABEL": "IC50", "READOUT_UNIT": "µM", "QUALIFYING_SIGN": "=", "EXPERIMENTAL_VALUE": 0.0171}
